These measurements were taken from patent US20220119540A1.

Target under test: T1, OX40 on a functional cell line overexpressing OX40 (UniProt P43489 29-277, limits assumed)
T1 sequence (looked up): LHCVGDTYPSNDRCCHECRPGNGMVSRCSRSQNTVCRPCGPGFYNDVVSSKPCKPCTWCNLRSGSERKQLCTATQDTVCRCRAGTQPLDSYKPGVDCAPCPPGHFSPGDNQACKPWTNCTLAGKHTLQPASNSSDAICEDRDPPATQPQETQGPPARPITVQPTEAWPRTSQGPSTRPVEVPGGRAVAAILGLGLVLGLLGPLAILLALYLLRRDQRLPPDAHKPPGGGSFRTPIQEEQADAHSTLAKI
Assay comment: cell-based or functional assay
Property measured: IL-8 secretion by OX40 overexpressing functional cell line, best-fit value LogEC50
I'd appreciate a reply containing only the number, no unit.

What value of IL-8 secretion by OX40 overexpressing functional cell line, best-fit value LogEC50 has been reported for the following binder? AH02916 humanized anti-human OX40 monoclonal antibody (recombinant human IgG1/kappa) (antibody, V domains shown) VH: QVQLVQSGAEVKKPGASVKVSCKASGYTFTDYSMHWVKQAPGQGLEWMGWISTETGEPTYADDFKGRVTITLDTSASTAYMELSSLRSEDTAVYYCARVRPWYLAVWGQGTLVTVSS VL: DIQMTQSPSSLSASVGDRVTITCRASQDISNYLNWYQQKPGKAVKLLIYYTSRLYSGVPSRFSGSGSGTDYTFTISSLQPEDIATYFCQQANTLPLTFGGGTKLEIK
0.476
